Recorded % Phosphatase Activity (compared to DMSO) PRL-1 by entry
testTarget: recombinant PRL-1 (Homo sapiens, UniProt Q93096)
Construct: 6xHis (N, cleaved yes); made in house; host or cells: E. coli One Shot BL21 Star
assayProcedure: In vitro phosphatase assay (DiFMUP hydrolysis), PRL-1; further: test concentration or dose not given here
Assay type: biochemical
conditionLabel: FDA-approved drug screen; activity compared to DMSO
Structures can show the parent of a compound that is named as a salt.
Answer format: numeric, % implied, no suffix.

1) CC(c1cc2ccccc2s1)N(O)C(N)=O (stereo not shown) [Zileuton]    96
2) C[C@@H]1COC(Nc2ccc3ncnc(Nc4ccc(OCc5nccs5)c(Cl)c4)c3c2)=N1 [Varlitinib]    126
3) CN(C)CCN(Cc1ccccc1)c1ccccn1 [Tripelennamine HCl]    91

Here is another compound to look at.
Query string: For the compound CCCS(=O)(=O)Nc1ccc(F)c(C(=O)c2c[nH]c3ncc(-c4ccc(Cl)cc4)cc23)c1F [Vemurafenib (PLX4032, RG7204)] , give its reported % Phosphatase Activity (compared to DMSO) PRL-1.
Result string: 89

====

testTarget: recombinant PRL-2 (Homo sapiens)
Construct: 6xHis (N, cleaved yes); made in house; host or cells: E. coli One Shot BL21 Star
Sequence (Q12974 1-167): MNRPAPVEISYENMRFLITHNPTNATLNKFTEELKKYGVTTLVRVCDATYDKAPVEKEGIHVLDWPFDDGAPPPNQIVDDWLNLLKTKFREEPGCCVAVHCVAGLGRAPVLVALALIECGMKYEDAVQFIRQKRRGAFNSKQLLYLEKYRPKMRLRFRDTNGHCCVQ
assayProcedure: In vitro phosphatase assay (DiFMUP hydrolysis), PRL-2
Assay type: biochemical
conditionLabel: FDA-approved drug screen; compared to DMSO
Structures can show the parent of a compound that is named as a salt.
endpointName: % Phosphatase Activity (compared to DMSO) PRL-2
Remember to quote the unit after the number.

Examples with answers:
1) COC(=O)N(C)c1c(N)nc(-c2nn(Cc3ccccc3F)c3ncccc23)nc1N [Riociguat (BAY 63-2521)]    82%
2) CNCC(=O)c1ccc(O)c(O)c1.Cl [Adrenalone HCl]    91%
3) CN(C)CC/C=C1/c2ccccc2COc2ccc(CC(=O)O)cc21 [Olopatadine HCl]    121%
4) CCCCC(=O)O[C@H]1CC[C@H]2[C@@H]3CCc4cc(O)ccc4[C@H]3CC[C@]12C [Estradiol valerate]    99%
5) C[C@H]1COc2c(N3CCN(C)CC3)c(F)cc3c(=O)c(C(=O)O)cn1c23 [Levofloxacin hydrate]    306%

Query string: For the molecule Oc1ncnc2[nH]ncc12 [Allopurinol] , give its reported % Phosphatase Activity (compared to DMSO) PRL-2.
Result string: 97%

Query string: For the molecule CC(/C=C1\SC(=S)N(CC(=O)O)C1=O)=C\c1ccccc1 [Epalrestat] , give its reported % Phosphatase Activity (compared to DMSO) PRL-2.
Result string: 17%

Query string: For the molecule CC[C@H](Nc1ncnc2[nH]cnc12)c1nc2cccc(F)c2c(=O)n1-c1ccccc1 [CAL-101 (Idelalisib, GS-1101)] , give its reported % Phosphatase Activity (compared to DMSO) PRL-2.
Result string: 104%

====

testTarget: recombinant PRL-3 (Homo sapiens, UniProt O75365)
Construct: 6xHis (N, cleaved yes); made in house; host or cells: E. coli One Shot BL21 Star
Sequence (O75365 whole entry): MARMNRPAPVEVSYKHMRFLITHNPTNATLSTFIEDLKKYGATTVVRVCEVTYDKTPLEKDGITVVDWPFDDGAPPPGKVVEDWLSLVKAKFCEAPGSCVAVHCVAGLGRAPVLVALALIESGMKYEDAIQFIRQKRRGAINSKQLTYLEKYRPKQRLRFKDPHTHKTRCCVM
assayProcedure: In vitro phosphatase assay (DiFMUP hydrolysis), PRL-3; further: test concentration or dose not given here
Format: biochemical
conditionLabel: FDA-approved drug screen; activity compared to DMSO
Counter-ions that a name gives are not always drawn.
Recorded % Phosphatase Activity (compared to DMSO) PRL-3 by entry
Answer format: numeric, % implied, no suffix.

Examples with answers:
1) O=C(O)c1cc(/N=N/c2ccc(S(=O)(=O)Nc3ccccn3)cc2)ccc1O [Sulfasalazine]    59
2) C=C[C@]1(C)C[C@@H](OC(=O)CSC(C)(C)CNC(=O)[C@H](N)C(C)C)[C@]2(C)[C@H](C)CC[C@]3(CCC(=O)[C@H]32)[C@@H](C)[C@@H]1O.Cl [Valnemulin HCl]    80
3) C[C@@H]1COC(Nc2ccc3ncnc(Nc4ccc(OCc5nccs5)c(Cl)c4)c3c2)=N1 [Varlitinib]    132
4) O=c1n(CCCN2CCN(c3cccc(Cl)c3)CC2)nc2ccccn12 [Trazodone HCl]    93
5) CCCc1nn(C)c2c(=O)[nH]c(-c3cc(S(=O)(=O)N4CCN(C)CC4)ccc3OCC)nc12 [Sildenafil Citrate]    84
6) COc1ccc(/C=C/C(=O)Nc2ccccc2C(=O)O)cc1OC [Tranilast]    82
7) Cl.c1ccc2c(c1)CCCC2C1=NCCN1 (stereo not shown) [Tetrahydrozoline HCl]    58
8) Nc1ccc(C(=O)NCC(=O)[O-])cc1.O.[Na+] [Sodium 4-aminohippurate Hydrate]    84

Query string: For the compound CCCCNC(=O)NS(=O)(=O)c1ccc(C)cc1 [Tolbutamide] , give its reported % Phosphatase Activity (compared to DMSO) PRL-3.
Result string: 91

Query string: For the compound CC1(C)O[C@@H]2C[C@H]3[C@@H]4CCC5=CC(=O)C=C[C@]5(C)[C@@]4(F)[C@@H](O)C[C@]3(C)[C@]2(C(=O)CO)O1 [Triamcinolone Acetonide] , give its reported % Phosphatase Activity (compared to DMSO) PRL-3.
Result string: 78

====

testTarget: recombinant PRL-1 (Homo sapiens, UniProt Q93096)
Construct: 6xHis (N, cleaved yes); made in house; host or cells: E. coli One Shot BL21 Star
Sequence (Q93096 1-173): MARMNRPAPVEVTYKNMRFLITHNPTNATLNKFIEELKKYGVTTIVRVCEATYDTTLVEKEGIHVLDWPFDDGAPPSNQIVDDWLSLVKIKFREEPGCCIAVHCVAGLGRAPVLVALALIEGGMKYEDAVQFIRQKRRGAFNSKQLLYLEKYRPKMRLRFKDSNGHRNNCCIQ
assayProcedure: In vitro phosphatase assay (DiFMUP hydrolysis), PRL-1; further: test concentration or dose not given here
Type: biochemical
conditionLabel: FDA-approved drug screen; compared to DMSO
Where a name gives a salt, the structure may show the parent alone.
Recorded % Phosphatase Activity (compared to DMSO) PRL-1 by entry
Answer format: numeric, % implied, no suffix.

1. CN(C)CCCOc1nn(Cc2ccccc2)c2ccccc12 [Benzydamine HCl]    100

Query string: For the compound CC[C@H](C)[C@H]1O[C@]2(CC[C@@H]1C)C[C@@H]1C[C@@H](C/C=C(\C)[C@@H](O[C@H]3C[C@H](OC)[C@@H](O[C@H]4C[C@H](OC)[C@@H](O)[C@H](C)O4)[C@H](C)O3)[C@@H](C)/C=C/C=C3\CO[C@@H]4[C@H](O)C(C)=C[C@@H](C(=O)O1)[C@]34O)O2 [Ivermectin] , give its reported % Phosphatase Activity (compared to DMSO) PRL-1.
Result string: 91

Query string: For the compound Nc1nccs1 [Aminothiazole] , give its reported % Phosphatase Activity (compared to DMSO) PRL-1.
Result string: 108

Query string: For the compound Cc1ccc(NC(=O)c2ccc(CN3CC[C@H](N(C)C)C3)c(C(F)(F)F)c2)cc1Nc1nccc(-c2cncnc2)n1 [Bafetinib (INNO-406)] , give its reported % Phosphatase Activity (compared to DMSO) PRL-1.
Result string: 97

Query string: For the compound NC(=O)CN1CCCC1=O [Piracetam] , give its reported % Phosphatase Activity (compared to DMSO) PRL-1.
Result string: 98

Query string: For the compound Cc1ncc([N+](=O)[O-])n1CC(C)O (stereo not drawn) [Secnidazole] , give its reported % Phosphatase Activity (compared to DMSO) PRL-1.
Result string: 112

====

testTarget: recombinant PRL-2 (Homo sapiens, UniProt Q12974)
Construct: 6xHis (N, cleaved yes); made in house; host or cells: E. coli One Shot BL21 Star
assayProcedure: In vitro phosphatase assay (DiFMUP hydrolysis), PRL-2;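 further: PRL-2 activity read as DiFMUP hydrolysis after 20 min at room temperature with drug, enzyme first pre-reduced at 4 °C for 20 min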
Assay type: biochemical
conditionLabel: FDA-approved drug screen; compared to DMSO
Structures can show the parent of a compound that is named as a salt.
Recorded % Phosphatase Activity (compared to DMSO) PRL-2 by entry
Answer format: numeric, % implied, no suffix.

1. [H]/N=C(/N)N/C(=N/[H])NCCc1ccccc1 [Phenformin HCl]    120
2. O=C(/C=C/C=C/c1ccc2c(c1)OCO2)N1CCCCC1 [Piperine]    119
3. CCNC1(C(N)=O)CCN(c2ncnc3c2nc(-c2ccccc2Cl)n3-c2ccc(Cl)cc2)CC1.Cl [Otenabant (CP-945598) HCl]    78
4. CCc1oc2ccccc2c1C(=O)c1cc(Br)c(O)c(Br)c1 [Benzbromarone]    56

Here is another compound to look at.
Query string: For the compound CN1C(=O)CCS(=O)(=O)C1c1ccc(Cl)cc1 (centres unmarked) [Chlormezanone] , give its reported % Phosphatase Activity (compared to DMSO) PRL-2.
Result string: 127
